# maps each entry to its IC50
test system: MDA-MB-231; experiment: Cytotoxicity against human MDA-MB-231 cells after 72 hrs by XTT assay; format: functional, cell-based; conditions: MDA-MB-231, 72 h
Enter your answer as a number in µM; do not include the unit.

Sample records with IC50:
CC(C)=CC[C@@H](OC(=O)CC(C)(C)O)C1=CC(=O)c2c(O)ccc(O)c2C1=O [BETA-HYDROXYISOVALERYLSHIKONIN] : 4.6
CC(C)=CC[C@@H](OC(=O)C=C(C)C)C1=CC(=O)c2c(O)ccc(O)c2C1=O : 23.2

Incoming: May I ask what IC50 has been recorded for CC(=O)O[C@H](CC=C(C)C)C1=CC(=O)c2c(O)ccc(O)c2C1=O ?
Outgoing: 11.3

Incoming: And for CC[C@]1(O)C[C@@H]2CN(CCc3c([nH]c4ccccc34)[C@@](C(=O)OC)(c3cc4c(cc3OC)N(C)[C@H]3[C@@](O)(C(=O)OC)[C@H](OC(C)=O)[C@]5(CC)C=CCN6CC[C@]43[C@@H]65)C2)C1 ?
Outgoing: 0.031
